This collection of values is drawn from ChEMBL document CHEMBL1143122.

Hi there, I'd appreciate the recorded GI50 for every entry that follows.
system: SNB-19; assay: Antiproliferative activity against human SNB19 cells after 48 hrs; type: functional; conditions: SNB-19, 48 h
Answers are plain numbers, in nM.

Below, each entry is followed by its recorded GI50 result.
# smilesEntry, unitLabel, GI50
records = [
    ("C[C@@H](NC(=O)CCCCCCCCCCCCCCC[n+]1ccccc1)[C@@H](O)c1ccccc1.[Br-]", "nM", 1580),
    ("C[C@H](NC(=O)CCCCCCCCCCCCCCC[n+]1ccccc1)[C@H](O)c1ccccc1.[Br-]", "nM", 3090),
]

For each entry beneath this line, provide reported GI50.
1. CCCCCCCCCCCCCCN[C@H](CO)[C@H](O)c1ccccc1
2. CCCCCCCCCCCCCCN[C@H](CO)[C@H](O)c1ccc([N+](=O)[O-])cc1.Cl
3. CCCCCCCCCCCCCCN[C@H](C)[C@@H](O)c1ccccc1.Cl

RESULT:
1: 1780; 2: 1740; 3: 1740

For each entry beneath this line, provide reported GI50.
1. CCCCCCCCCCCCCCN[C@@H](C)[C@H](O)c1ccccc1
2. CCCCCCCCCCCCCCN[C@@H](CO)Cc1ccccc1

RESULT:
[1700, 1700]

====

Hi there, I'd appreciate the recorded CC50 for every entry that follows.
test system: A549; experiment: Antiproliferative activity against human A549 cells after 48 hrs; type: functional; conditions: A549, 48 h, read-out: Log LC50 (the source's name) (converted)
Answers are plain numbers, in µM.

Below, each entry is followed by its recorded CC50 result.
# smilesEntry, observedValue
rows = [
    ("C[C@H](NC(=O)CCCCCCCCCCCCCCC[n+]1ccccc1)[C@H](O)c1ccccc1.[Br-]", 67.6),
    ("CCCCCCCCCCCCCCN[C@H](C)[C@@H](O)c1ccccc1.Cl", 6.31),
    ("CCCCCCCCCCCCCCN[C@H](CO)[C@H](O)c1ccccc1", 6.03),
]

For each entry beneath this line, provide reported CC50.
1. CCCCCCCCCCCCCCN[C@@H](C)[C@H](O)c1ccccc1
2. CCCCCCCCCCCCCCN[C@@H](CO)Cc1ccccc1

RESULT:
[7.08, 26.3]

====

system: TK-10; experiment: Antiproliferative activity against human TK10 cells after 48 hrs; format: functional; conditions: TK-10, 48 h
Hi there, I'd appreciate the recorded GI50 for every entry that follows.
Give bare numbers, in nM.

Below, each entry is followed by its recorded GI50 result.
# smilesEntry, GI50 [nM]
records = [
    ("CCCCCCCCCCCCCCN[C@@H](C)[C@H](O)c1ccccc1", 2000),
    ("CCCCCCCCCCCCCCN[C@H](CO)[C@H](O)c1ccccc1", 2000),
    ("CCCCCCCCCCCCCCN[C@H](C)[C@@H](O)c1ccccc1.Cl", 1860),
    ("C[C@@H](NC(=O)CCCCCCCCCCCCCCC[n+]1ccccc1)[C@@H](O)c1ccccc1.[Br-]", 4900),
    ("CCCCCCCCCCCCCCN[C@H](CO)[C@H](O)c1ccc([N+](=O)[O-])cc1.Cl", 10500),
    ("C[C@H](NC(=O)CCCCCCCCCCCCCCC[n+]1ccccc1)[C@H](O)c1ccccc1.[Br-]", 14500),
]

Next, consider the following molecule.
QUERY: Dear colleague, I am looking for the recorded GI50 of the following molecule: `CCCCCCCCCCCCCCN[C@@H](CO)Cc1ccccc1`
RESULT: 2040

====

tested on: NCI-H322M; experiment: Antiproliferative activity against human NCI-H322M cells after 48 hrs; format: functional; conditions: read-out: Log LC50 (the source's name) (converted)
Hi! Just check whether CC50 is below 40 µM. Below gives class 1, equal or above gives class 0.

# smilesEntry, classification
records = [
    ("C[C@@H](NC(=O)CCCCCCCCCCCCCCC[n+]1ccccc1)[C@@H](O)c1ccccc1.[Br-]", "class 0"),
    ("CCCCCCCCCCCCCCN[C@H](CO)[C@H](O)c1ccc([N+](=O)[O-])cc1.Cl", "class 0"),
    ("CCCCCCCCCCCCCCN[C@@H](CO)Cc1ccccc1", "class 1"),
    ("CCCCCCCCCCCCCCN[C@@H](C)[C@H](O)c1ccccc1", "class 1"),
]

QUERY: Bench note: check whether `C[C@H](NC(=O)CCCCCCCCCCCCCCC[n+]1ccccc1)[C@H](O)c1ccccc1.[Br-]` shows CC50 below 40 µM
RESULT: class 0

QUERY: Bench note: check whether `CCCCCCCCCCCCCCN[C@H](CO)[C@H](O)c1ccccc1` shows CC50 below 40 µM
RESULT: class 1

QUERY: Bench note: check whether `CCCCCCCCCCCCCCN[C@H](C)[C@@H](O)c1ccccc1.Cl` shows CC50 below 40 µM
RESULT: class 1

====

system: UACC-62; test: Antiproliferative activity against human UACC62 cells after 48 hrs; format: functional; details: UACC-62, 48 h, read-out: Log TGI (converted)
Hi there, I'd appreciate the recorded TGI for every entry that follows.
Numbers only, in µM.

For each entry beneath this line, provide reported TGI.
1. C[C@H](NC(=O)CCCCCCCCCCCCCCC[n+]1ccccc1)[C@H](O)c1ccccc1.[Br-]
2. CCCCCCCCCCCCCCN[C@H](C)[C@@H](O)c1ccccc1.Cl

RESULT:
5.75
3.47

For each entry beneath this line, provide reported TGI.
1. CCCCCCCCCCCCCCN[C@@H](CO)Cc1ccccc1
2. C[C@@H](NC(=O)CCCCCCCCCCCCCCC[n+]1ccccc1)[C@@H](O)c1ccccc1.[Br-]
3. CCCCCCCCCCCCCCN[C@@H](C)[C@H](O)c1ccccc1
4. CCCCCCCCCCCCCCN[C@H](CO)[C@H](O)c1ccccc1

RESULT:
[3.98, 2.88, 3.39, 3.72]

QUERY: Dear colleague, I am looking for the recorded TGI of the following compound: `CCCCCCCCCCCCCCN[C@H](CO)[C@H](O)c1ccc([N+](=O)[O-])cc1.Cl`
RESULT: 24

====

Hi there, I'd appreciate the recorded GI50 for every entry that follows.
test system: HCC 2998; assay: Antiproliferative activity against human HCC2998 cells after 48 hrs; assay type: functional; conditions: HCC 2998, 48 h
One number for each entry, in µM.

Below, each entry is followed by its recorded GI50 result.
# smilesEntry, studySystem, GI50, µM
measured = [
    ("C[C@H](NC(=O)CCCCCCCCCCCCCCC[n+]1ccccc1)[C@H](O)c1ccccc1.[Br-]", "HCC 2998", 1.55),
    ("CCCCCCCCCCCCCCN[C@H](C)[C@@H](O)c1ccccc1.Cl", "HCC 2998", 1.86),
    ("CCCCCCCCCCCCCCN[C@@H](C)[C@H](O)c1ccccc1", "HCC 2998", 1.82),
    ("CCCCCCCCCCCCCCN[C@@H](CO)Cc1ccccc1", "HCC 2998", 2.24),
    ("C[C@@H](NC(=O)CCCCCCCCCCCCCCC[n+]1ccccc1)[C@@H](O)c1ccccc1.[Br-]", "HCC 2998", 1.51),
]

For each entry beneath this line, provide reported GI50.
1. CCCCCCCCCCCCCCN[C@H](CO)[C@H](O)c1ccccc1
2. CCCCCCCCCCCCCCN[C@H](CO)[C@H](O)c1ccc([N+](=O)[O-])cc1.Cl

RESULT:
1.66
2.4

====

test system: MCF7; test: Drug level in human MCF7 cells at 10 uM per 10^6 cells after 0.5 hrs; assay type: ADME, cell-based; conditions: mcf7, 0.5 h
measurementKind: Drug uptake (pmol)
Give bare numbers, in pmol.

Below, each entry is followed by its recorded Drug uptake result.
# smilesEntry, unitLabel, observedValue
records = [
    ("C[C@@H](NC(=O)CCCCCCCCCCCCCCC[n+]1ccccc1)[C@@H](O)c1ccccc1.[Br-]", "pmol", 800),
    ("CCCCCCCCCCCCCCN[C@H](C)[C@@H](O)c1ccccc1.Cl", "pmol", 3600),
    ("CCCCCCCCCCCCCCN[C@H](CO)[C@H](O)c1ccc([N+](=O)[O-])cc1.Cl", "pmol", 3600),
    ("C[C@H](NC(=O)CCCCCCCCCCCCCCC[n+]1ccccc1)[C@H](O)c1ccccc1.[Br-]", "pmol", 800),
]

Next, consider the following compound.
QUERY: Dear colleague, I am looking for the recorded Drug uptake of the following compound: `CCCCCCCCCCCCCC(=O)N[C@H](CO)[C@H](O)c1ccc(NC(=O)CCCCC[n+]2ccccc2)cc1.[Br-]`
RESULT: 800

====

Hi there, I'd appreciate the recorded LC50 for every entry that follows.
assay: Antiproliferative activity against human HL60(TB) cells after 48 hrs; type: functional, HL-60(TB); conditions: HL-60, 48 h

Below, each entry is followed by its recorded LC50 result.
# smilesEntry, observedValue
measured = [
    ("CCCCCCCCCCCCCCN[C@H](CO)[C@H](O)c1ccc([N+](=O)[O-])cc1.Cl", "15.1 µM"),
    ("CCCCCCCCCCCCCCN[C@H](CO)[C@H](O)c1ccccc1", "8.51 µM"),
    ("CCCCCCCCCCCCCCN[C@@H](CO)Cc1ccccc1", "9.33 µM"),
    ("CCCCCCCCCCCCCCN[C@H](C)[C@@H](O)c1ccccc1.Cl", "6.61 µM"),
    ("CCCCCCCCCCCCCCN[C@@H](C)[C@H](O)c1ccccc1", "8.13 µM"),
    ("C[C@@H](NC(=O)CCCCCCCCCCCCCCC[n+]1ccccc1)[C@@H](O)c1ccccc1.[Br-]", "> 100 µM"),
]

QUERY: Dear colleague, I am looking for the recorded LC50 of the following molecule: `C[C@H](NC(=O)CCCCCCCCCCCCCCC[n+]1ccccc1)[C@H](O)c1ccccc1.[Br-]`
RESULT: 31.6 µM
